assay: SPECT/CT quantification of kidney activity after coinjection of radiotracers with NaCl, Arg-Lys or paraaminohippurate; assay type: in vivo, Wistar rats; conditions: male, Wistar, rat, in vivo, %ID/g of kidney tissue
READOUT_TYPE: tissue uptake at 1 h (%ID/g)
Give the value, in units of %ID/g, as a plain number.

Request the reported tissue uptake at 1 h associated with C[C@@H](O)[C@@H]1NC(=O)[C@H](CCCCN)NC(=O)[C@@H](Cc2c[nH]c3ccccc23)NC(=O)[C@H](Cc2ccc(O)cc2)NC(=O)[C@@H](NC(=O)[C@@H](Cc2ccccc2)NC(=O)CN2CCN(CC(=O)O)CCN(CC(=O)O)CCN(CC(=O)O)CC2)CSSC[C@@H](C(=O)N[C@H](CO)[C@@H](C)O)NC1=O [[^177Lu]Lu-DOTATOC, metal not drawn]
12.2

---

assay: SPECT/CT quantification of kidney activity after coinjection of radiotracers with NaCl, Arg-Lys or paraaminohippurate; format: in vivo, Wistar rats; conditions: male, Wistar, rat, in vivo, %ID/g of kidney tissue
READOUT_TYPE: tissue uptake at 24 h (%ID/g)
Give the value, in units of %ID/g, as a plain number.

Request the reported tissue uptake at 24 h associated with C[C@@H](O)[C@@H]1NC(=O)[C@H](CCCCN)NC(=O)[C@@H](Cc2c[nH]c3ccccc23)NC(=O)[C@H](Cc2ccc(O)cc2)NC(=O)[C@@H](NC(=O)[C@@H](Cc2ccccc2)NC(=O)CN2CCN(CC(=O)O)CCN(CC(=O)O)CCN(CC(=O)O)CC2)CSSC[C@@H](C(=O)N[C@H](CO)[C@@H](C)O)NC1=O [[^177Lu]Lu-DOTATOC, metal not drawn]
2.4

---

experiment: SPECT/CT quantification of kidney activity after coinjection of radiotracers with NaCl, Arg-Lys or paraaminohippurate; assay type: in vivo, Wistar rats; conditions: male, Wistar, rat, in vivo, %ID/g of kidney tissue
READOUT_TYPE: tissue uptake at 4 h

Request the reported tissue uptake at 4 h associated with C[C@@H](O)[C@@H]1NC(=O)[C@H](CCCCN)NC(=O)[C@@H](Cc2c[nH]c3ccccc23)NC(=O)[C@H](Cc2ccc(O)cc2)NC(=O)[C@@H](NC(=O)[C@@H](Cc2ccccc2)NC(=O)CN2CCN(CC(=O)O)CCN(CC(=O)O)CCN(CC(=O)O)CC2)CSSC[C@@H](C(=O)N[C@H](CO)[C@@H](C)O)NC1=O [[^177Lu]Lu-DOTATOC, metal not drawn]
2.7 %ID/g
